These measurements were taken from patent US20170183390A1.

Target: T1, soluble αVβ6 headpiece, disulfide-linked (αV headpiece residues 1-594 with M400C); β6 headpiece residues 1-474 … (UniProt P06756 31-624; P18564 18-491, Interchain disulfide between αV Cys-400 and β6 Cys-270.)
T1 alpha: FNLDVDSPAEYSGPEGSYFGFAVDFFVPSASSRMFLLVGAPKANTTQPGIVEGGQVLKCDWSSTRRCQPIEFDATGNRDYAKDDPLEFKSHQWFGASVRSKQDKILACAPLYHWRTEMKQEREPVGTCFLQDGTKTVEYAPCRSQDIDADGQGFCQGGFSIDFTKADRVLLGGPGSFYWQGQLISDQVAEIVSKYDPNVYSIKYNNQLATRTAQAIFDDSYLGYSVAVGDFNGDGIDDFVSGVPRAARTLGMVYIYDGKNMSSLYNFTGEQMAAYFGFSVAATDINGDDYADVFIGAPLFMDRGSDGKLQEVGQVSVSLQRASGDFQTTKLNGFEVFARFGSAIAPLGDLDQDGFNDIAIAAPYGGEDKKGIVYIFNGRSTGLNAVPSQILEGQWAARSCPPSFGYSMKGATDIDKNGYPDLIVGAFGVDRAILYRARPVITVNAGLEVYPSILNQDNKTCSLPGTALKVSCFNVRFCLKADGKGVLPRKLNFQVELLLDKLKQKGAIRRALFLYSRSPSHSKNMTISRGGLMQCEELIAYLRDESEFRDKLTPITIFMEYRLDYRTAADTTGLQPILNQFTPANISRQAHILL
T1 beta: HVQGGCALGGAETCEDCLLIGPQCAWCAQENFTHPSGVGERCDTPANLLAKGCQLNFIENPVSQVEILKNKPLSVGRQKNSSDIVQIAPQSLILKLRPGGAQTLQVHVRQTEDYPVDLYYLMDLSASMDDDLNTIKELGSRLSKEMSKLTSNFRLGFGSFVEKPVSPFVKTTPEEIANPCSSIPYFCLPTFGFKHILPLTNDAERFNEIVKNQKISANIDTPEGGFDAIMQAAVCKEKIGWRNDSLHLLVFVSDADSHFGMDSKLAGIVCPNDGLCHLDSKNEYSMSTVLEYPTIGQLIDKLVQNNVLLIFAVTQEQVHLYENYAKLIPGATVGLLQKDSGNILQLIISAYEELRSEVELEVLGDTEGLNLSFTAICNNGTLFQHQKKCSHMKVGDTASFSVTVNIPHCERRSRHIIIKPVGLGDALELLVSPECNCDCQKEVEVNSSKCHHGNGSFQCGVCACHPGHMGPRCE
Test: fluorescence anisotropy; pH 7.0
Ends that are not written are not given here. * marks the point of attachment. FITC = O=C1OC2(c3ccc(O)cc3Oc3cc(O)ccc32)c2ccc(NC(=S)*)cc21

- binder: "{FITC}-GRGDLGRL (also called the probe) [FITC-GRGDLGRL (FITC-pro-TGF-β3 peptide, fluorescence probe)]"
  units of measure: "nM"
  Kd: 212
